experiment: NCI Yeast Anticancer Drug Screen. Data for the sgs1 mgt1 strain (AID 161);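 further: 0% = growth of cultures given vehicle only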; conditions: S. cerevisiae sgs1 mgt1 strain, at 50.0 µM
Compounds without any hit were thinned out: in the full panel of roughly 79,000, 15% have a hit. Active and inactive are the calls of the source. No stated cut-off is given here; in the data, active means growth inhibition above about 70%; inactive means the rest.
The reply should be one of these categories: yes for active, no for inactive

The following compounds have reported results that may help.
Nc1ncnc2c1c(-c1ccccc1)cn2-c1ccc(Br)cc1 ... yes
CC(c1ccc2cccc(F)c2c1)c1ccccc1C(=O)O (centres undefined) ... yes
CC#CCCCCOC(=O)c1cc([N+](=O)[O-])cc([N+](=O)[O-])c1 ... yes
CCCCc1ccc2nccc(N/N=C/c3ccc(OC)c4ccccc34)c2c1 ... yes
CC(C)c1cc(O)c(C(C)(C)C)cc1Cl ... yes

We now examine a further compound.
**Query** Give the logged outcome of this assay for the following compound: CC(=O)N1C=C2CCC3c4ccccc4NC3C2CC1 (centres undefined)
**Result** no

====

What growth inhibition was measured for each of the following?
assay: NCI Yeast Anticancer Drug Screen. Data for the mlh1 rad18 strain (AID 175); conditions: S. cerevisiae mlh1 rad18 strain growth inhibition; at 50.0 µM (retest, dose inferred, filed as 5.0); stronger effect = higher value
The panel holds about 79,000 compounds, 15% with a hit somewhere; the sample as a whole holds those more often. The source made the active and inactive calls. No stated cut-off is given here; in the data, active means growth inhibition above about 70%; inactive means the rest.

Dear colleague, could you send me growth inhibition for each of the items below? Thanks.
1. COc1cc(O)c2c(c1)C(=O)c1cc3c(c(O)c1C2=O)C(OC1OC(C)C(O)C(O)C1OC)C(OC)C(C)(O)C3=O (stereo not drawn)
2. O=C1CCCCC1=C(I)I
3. COc1ccc(/C=N/n2c(C)nc3c(sc(=S)n3-c3ccccc3)c2=O)cc1

**Result**
99% (active)
12% (inactive)
-12% (inactive)

====

assay: NCI Yeast Anticancer Drug Screen. Data for the mec2-1 strain (AID 157); conditions: S. cerevisiae mec2-1 strain, at 50.0 µM (retest, dose inferred, filed as 5.0), stronger effect = higher value
This is part of a sample that, as a whole, favours compounds with a hit. Of some 79,000 tested, about 15% had one in any assay.
measurement.kind: growth inhibition (%)
One number for each entry, in %.

Below: 5 compounds and their reported growth inhibition.
O=C(Nc1ccccc1-c1nn(CN2CCNCC2)c(=S)n(CN2CCNCC2)c1=O)C(F)(F)F ... 10
COc1ccc(C(=O)Cc2ccc(Cl)cc2)cc1OC ... -13
S=P([S][Sn]([S]P(=S)(c1ccccc1)c1ccccc1)([c]1ccccc1)[c]1ccccc1)(c1ccccc1)c1ccccc1 ... 73
COc1ccc(-c2noc(=O)c3ccccc23)cc1 ... 4
CCCCN(CCCC)CC(O)c1ccc(CCc2ccccc2)cc1 (stereo not drawn) ... 92

Dear colleague, could you send me growth inhibition for each of the items below? Thanks.
1. O=C(O)c1ccc(N=CC2CO2)cc1 (stereo not drawn)
2. CN(C)CCCNc1cc(/C=C/c2ccc([N+](=O)[O-])cc2)nc2ccccc12
3. CN1CCS(=O)(=O)C1=O
4. COc1ccc(N=NN2CCCC2)cc1
5. CN(O)C(=S)c1ccccc1
6. COc1ccc2c(c1OC)OCC2C (stereo not drawn)

**Result**
1: 64; 2: 38; 3: 93; 4: 27; 5: 73; 6: 38

Dear colleague, could you send me growth inhibition for each of the items below? Thanks.
1. COc1ccccc1NC(=O)/C(=C/c1ccccc1)C(C)=O
2. c1ccc(OCC2c3ccccc3Nc3ccccc32)cc1

**Result**
-2
98
